Provide the recorded inhibition at 10 µM for the entries that follow.
- System: 786–0
- method.notes: NCI60 antitumor screening
- Format: cell-based, human
- conditions.used: Homo sapiens; 10 μM single dose; 786–0 (renal cancer); read-out: growth inhibition percent (GI%)

The examples below pair each entry with its known result.
> print(dat)
                    structure.smiles.string  system.name         measure.name  observed
1  CN1CCN(c2nc(SCc3ccc(F)cc3)nc(-c3ccc(F)cc3)c2C#N)CC1        786–0  inhibition at 10 µM     67.1%
2  N#Cc1c(-c2ccc(F)cc2)nc(SCc2ccccc2)nc1N1CCN(c2ccccc2)CC1        786–0  inhibition at 10 µM     < 10%

Read the next record carefully.
Task item: Name the reported inhibition at 10 µM value associated with the molecule "N#Cc1c(-c2ccc(F)cc2)nc(SCc2ccc([N+](=O)[O-])cc2)nc1N1CCNCC1"
Reply: < 10%

----------
For each record, write down the corresponding inhibition at 10 µM.
- Tested on: SN12C
- method.notes: NCI60 antitumor screening
- Type: cell-based, human
- conditions.used: Homo sapiens; 10 μM single dose; SN12C (renal cancer); read-out: growth inhibition percent (GI%)

Known results for molecules:
> print(dat)
                                   molecule         measure.name  observed
1  Cc1ccc(CSc2nc(-c3ccc(F)cc3)c(C#N)c(N3CCN(c4ccccc4)CC3)n2)cc1 [4p]  inhibition at 10 µM     < 10%
2  N#Cc1c(-c2ccc(F)cc2)nc(SCc2ccc(F)cc2)nc1N1CCN(c2ccccc2)CC1 [4n]  inhibition at 10 µM     < 10%
3  Cc1ccc(CSc2nc(-c3ccc(F)cc3)c(C#N)c(N3CCNCC3)n2)cc1 [4h]  inhibition at 10 µM     < 10%
4  N#Cc1c(-c2ccc(F)cc2)nc(SCc2ccccc2)nc1N1CCNCC1 [4e]  inhibition at 10 µM    > 100%
5  Cc1ccc(CSc2nc(-c3ccc(F)cc3)c(C#N)c(N3CCN(C)CC3)n2)cc1 [4l]  inhibition at 10 µM     11.9%

Count: 4. Required value per item: inhibition at 10 µM.
1. N#Cc1c(-c2ccc(F)cc2)nc(SCc2ccc([N+](=O)[O-])cc2)nc1N1CCNCC1 [4g]
2. CN1CCN(c2nc(SCc3ccccc3)nc(-c3ccc(F)cc3)c2C#N)CC1 [4i]
3. N#Cc1c(-c2ccc(F)cc2)nc(SCc2ccc(F)cc2)nc1N1CCNCC1 [4f]
4. N#Cc1c(-c2ccc(F)cc2)nc(SCc2ccccc2)nc1N1CCN(c2ccccc2)CC1 [4m]

Reply:
1: < 10%; 2: 12.6%; 3: > 100%; 4: < 10%

----------
Protein target, amino acids: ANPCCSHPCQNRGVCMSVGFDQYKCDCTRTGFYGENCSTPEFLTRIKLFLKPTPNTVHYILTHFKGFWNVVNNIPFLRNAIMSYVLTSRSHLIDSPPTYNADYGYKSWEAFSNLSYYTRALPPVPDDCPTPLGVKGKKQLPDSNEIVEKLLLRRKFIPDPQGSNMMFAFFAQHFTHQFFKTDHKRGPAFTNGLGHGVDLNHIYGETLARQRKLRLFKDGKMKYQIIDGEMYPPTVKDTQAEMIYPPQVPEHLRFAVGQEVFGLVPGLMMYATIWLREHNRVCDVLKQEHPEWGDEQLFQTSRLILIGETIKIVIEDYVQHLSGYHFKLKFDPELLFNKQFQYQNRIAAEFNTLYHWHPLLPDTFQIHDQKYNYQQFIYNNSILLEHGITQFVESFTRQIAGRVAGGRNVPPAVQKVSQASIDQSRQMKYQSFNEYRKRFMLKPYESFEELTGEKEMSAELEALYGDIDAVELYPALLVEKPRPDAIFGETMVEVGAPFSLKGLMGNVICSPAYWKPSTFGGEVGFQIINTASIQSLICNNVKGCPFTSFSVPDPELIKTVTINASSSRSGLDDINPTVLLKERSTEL
I'd be grateful if you could share measured pIC50 for these entries.
Answers are plain numbers, as −log10 of the molar value.

> print(dat)
                    structure.smiles.string  observed
1  N#Cc1c(-c2ccc(F)cc2)nc(SCc2ccccc2)nc1N1CCNCC1      5.89

Consider the additional compound presented here.
Task item: Requested read-out: pIC50. Entry: "N#Cc1c(-c2ccc(F)cc2)nc(SCc2ccc(F)cc2)nc1N1CCNCC1"
Reply: 5.28

----------
- System: NCI-H226
- method.notes: NCI60 antitumor screening
- Assay type: cell-based, human
- conditions.used: 10 μM one-dose
measure.name: GI% (%)
Answers are plain numbers, in %.

Some entries whose results are on file:
> print(dat)
                                   compound  system.name  observed
1  N#Cc1c(Cl)nc(SCc2ccccc2)nc1-c1ccc(F)cc1 [3a]     NCI-H226     18.61
2  N#Cc1c(-c2ccc(F)cc2)nc(SCc2ccc(F)cc2)[nH]c1=O [2b]     NCI-H226     24.21
3  Cc1ccc(CSc2nc(Cl)c(C#N)c(-c3ccc(F)cc3)n2)cc1 [3d]     NCI-H226     37.93
4  Cc1ccc(CSc2nc(-c3ccc(F)cc3)c(C#N)c(N3CCOCC3)n2)cc1 [4d]     NCI-H226     21.35
5  N#Cc1c(Cl)nc(SCc2ccc(F)cc2)nc1-c1ccc(F)cc1 [3b]     NCI-H226     28.68
6  N#Cc1c(-c2ccc(F)cc2)nc(SCc2ccc([N+](=O)[O-])cc2)[nH]c1=O [2c]     NCI-H226     22.53
7  N#Cc1c(-c2ccc(F)cc2)nc(SCc2ccc(F)cc2)nc1N1CCOCC1 [4b]     NCI-H226     51.64

Task item: // query GI% value for entry N#Cc1c(Cl)nc(SCc2ccc([N+](=O)[O-])cc2)nc1-c1ccc(F)cc1 [3c]
Reply: 46.54

----------
- Test system: SR
- method.notes: NCI60 antitumor screening
- Format: cell-based, human
- conditions.used: Homo sapiens; 10 μM single dose; SR (leukaemia); read-out: growth inhibition percent (GI%)
measure.name: inhibition at 10 µM

> print(dat)
                                   compound  system.name         measure.name  observed
1  CN1CCN(c2nc(SCc3ccccc3)nc(-c3ccc(F)cc3)c2C#N)CC1 [4i]           SR  inhibition at 10 µM       71%
2  N#Cc1c(-c2ccc(F)cc2)nc(SCc2ccccc2)nc1N1CCNCC1 [4e]           SR  inhibition at 10 µM    > 100%
3  Cc1ccc(CSc2nc(-c3ccc(F)cc3)c(C#N)c(N3CCNCC3)n2)cc1 [4h]           SR  inhibition at 10 µM     < 10%
4  N#Cc1c(-c2ccc(F)cc2)nc(SCc2ccccc2)nc1N1CCN(c2ccccc2)CC1 [4m]           SR  inhibition at 10 µM     < 10%
5  CN1CCN(c2nc(SCc3ccc([N+](=O)[O-])cc3)nc(-c3ccc(F)cc3)c2C#N)CC1 [4k]           SR  inhibition at 10 µM     < 10%

Below are 3 compounds. Give each one its inhibition at 10 µM.
1. CN1CCN(c2nc(SCc3ccc(F)cc3)nc(-c3ccc(F)cc3)c2C#N)CC1 [4j]
2. N#Cc1c(-c2ccc(F)cc2)nc(SCc2ccc(F)cc2)nc1N1CCNCC1 [4f]
3. N#Cc1c(-c2ccc(F)cc2)nc(SCc2ccc([N+](=O)[O-])cc2)nc1N1CCNCC1 [4g]

Reply:
["< 10%", "> 100%", "< 10%"]

Task item: Quick one: inhibition at 10 µM of Cc1ccc(CSc2nc(-c3ccc(F)cc3)c(C#N)c(N3CCN(C)CC3)n2)cc1 [4l] ?
Reply: < 10%

----------
- System: OVCAR-4
- method.notes: NCI60 antitumor screening
- Type: cell-based, human
- conditions.used: Homo sapiens; 10 μM single dose; OVCAR-4 (ovarian cancer); read-out: growth inhibition percent (GI%)
measure.name: inhibition at 10 µM (%)
Numbers only, in %.

// solved cases for inhibition at 10 µM follow
> print(dat)
                    structure.smiles.string  observed
1  CN1CCN(c2nc(SCc3ccc(F)cc3)nc(-c3ccc(F)cc3)c2C#N)CC1      24.1
2  Cc1ccc(CSc2nc(-c3ccc(F)cc3)c(C#N)c(N3CCN(c4ccccc4)CC3)n2)cc1      10.6
3  N#Cc1c(-c2ccc(F)cc2)nc(SCc2ccc(F)cc2)nc1N1CCN(c2ccccc2)CC1      10.4

Look up inhibition at 10 µM for the entries below, preserving their order.
1. CN1CCN(c2nc(SCc3ccccc3)nc(-c3ccc(F)cc3)c2C#N)CC1
2. N#Cc1c(-c2ccc(F)cc2)nc(SCc2ccc([N+](=O)[O-])cc2)nc1N1CCN(c2ccccc2)CC1

Reply:
22.5
12.3

Where these numbers come from: paper PMC10620772
